Target: T1, recombinant monomeric cynomolgus monkey TIGIT-His (cynomolgus monkey)
T1 construct: also called Cyno TIGIT His; cTIGIT; not shown: His tag
T1 sequence (chain, as listed by the source limits assumed): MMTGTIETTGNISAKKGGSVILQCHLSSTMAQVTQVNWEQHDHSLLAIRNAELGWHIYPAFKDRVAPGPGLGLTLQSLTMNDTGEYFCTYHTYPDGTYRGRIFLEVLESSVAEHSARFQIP
Assay: MSD-SET solution equilibrium titration, monomeric antigen
Checkbox rule: Kd lower than 0.05 nM = Satisfied; Kd not lower than 0.05 nM = Not satisfied.

>>> label("MAB4-IgG4 (antibody, V domains shown) VH: QLQLQESGPGLVKPSETLSLTCTVSGGSISSTSHYWGWIRQPPGKGLEWIGSIYYSGSTFYNPSLKSRVTISVDTSKNQFSLKLSSVTAADTAVYYCARDANYYGGAWAFDPWGQGTLVTVSS VL: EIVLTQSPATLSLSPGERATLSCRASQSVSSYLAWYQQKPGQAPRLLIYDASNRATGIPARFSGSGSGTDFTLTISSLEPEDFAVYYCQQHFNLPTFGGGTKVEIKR")
"Satisfied"
>>> label("MAB3-IgG4 (antibody, V domains shown) VH: QLQLQESGPGLVKPSETLSLTCTVSGGSISSTSHYWGWIRQPPGKGLEWIGSIYYSGSTFYNPSLKSRVTISVDTSKNQFSLKLSSVTAADTAVYYCARDANYYGSAWAFDPWGQGTLVTVSS VL: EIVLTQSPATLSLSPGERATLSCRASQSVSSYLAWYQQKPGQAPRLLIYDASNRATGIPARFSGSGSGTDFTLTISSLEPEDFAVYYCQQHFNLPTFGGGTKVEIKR")
"Satisfied"
>>> label("MAB5-IgG4 (antibody, V domains shown) VH: QLQLQESGPGLVKPSETLSLTCTVSGGSISSTSHYWGWIRQPPGKGLEWIGSIYYSGSTFYNPSLKGRVTISVDTSKNQFSLKLSSVTAADTAVYYCARDANYYGSAWAFDPWGQGTLVTVSS VL: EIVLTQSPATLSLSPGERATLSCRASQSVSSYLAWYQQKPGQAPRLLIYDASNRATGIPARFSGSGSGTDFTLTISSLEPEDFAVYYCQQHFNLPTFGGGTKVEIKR")
"Satisfied"
>>> label("MAB2-IgG4 (antibody, V domains shown) VH: QLQLQESGPGLVKPSETLSLTCTVSGGSISSSKYYWGWIRQPPGKGLEWIGSIYYSGSTFYNPSLKSRVTISVDTSKNQFSLKLSSVTAADTAVYYCARDANYYGSAWAFDPWGQGTLVTVSS VL: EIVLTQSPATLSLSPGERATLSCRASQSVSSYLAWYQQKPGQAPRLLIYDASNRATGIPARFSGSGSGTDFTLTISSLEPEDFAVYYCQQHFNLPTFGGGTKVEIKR")
"Not satisfied"

-- ask Dear reviewer, please state whether MAB1-IgG4 (antibody, V domains shown) VH: QLQLQESGPGLVKPSETLSLTCTVSGGSITSSSYYWGWIRQPPGKGLEWIGSIYYSGATFYNPSLKSRVTISVDTSKNQFSLKLSSVTAADTAVYYCARDANYYGSAWAFDPWGQGTLVTVSS VL: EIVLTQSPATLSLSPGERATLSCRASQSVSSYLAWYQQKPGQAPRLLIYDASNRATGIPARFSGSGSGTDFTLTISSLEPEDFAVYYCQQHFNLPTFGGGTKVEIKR has Kd strictly beneath 0.05 nM.
-- reply Not satisfied

Where do the numbers come from? From patent US20170340735A1.
